# Tested on: 621-102 (TSC2-deficient)
# PROCEDURE SUMMARY: relative viability vs DMSO (fraction); higher = less cytotoxic
# EXPERIMENTAL SETUP: 200 nM; serum: 0.1% FBS; 72 h
Criterion: relative viability strictly under 0.3. Met: Satisfied. Not met: Not satisfied.

- COc1cc(Nc2ncc3c(n2)-c2ccc(Cl)cc2C(c2c(F)cccc2OC)=NC3)ccc1C(=O)O: Satisfied
- O=c1cc(N2CCOCC2)oc2c(-c3cccc4c3sc3ccccc34)cccc12: Not satisfied
- CO[C@H]1C[C@@H]2CC[C@@H](C)[C@@](O)(O2)C(=O)C(=O)N2CCCC[C@H]2C(=O)O[C@H]([C@H](C)C[C@@H]2CC[C@@H](O)[C@H](OC)C2)CC(=O)[C@H](C)/C=C(\C)[C@@H](O)[C@@H](OC)C(=O)[C@H](C)C[C@H](C)/C=C/C=C/C=C/1C [Rapamycin(Sirolimus)]: Satisfied
- CC(C)C[C@@H](C=O)NC(=O)[C@H](CC(C)C)NC(=O)[C@H](CC(C)C)NC(=O)OCc1ccccc1: Satisfied
- Nc1ncn([C@H]2C[C@H](O)[C@@H](CO)O2)c(=O)n1: Not satisfied
- Nc1ccccc1NC(=O)c1ccc(CNc2nccc(-c3cccnc3)n2)cc1: Satisfied
- CCOc1ccn(-c2ccc(F)cc2)c(=O)c1C(=O)Nc1ccc(Oc2ccnc(N)c2Cl)c(F)c1: Not satisfied
- C#Cc1cccc(Nc2ncnc3cc(OC)c(OCCCCCCC(=O)NO)cc23)c1: Satisfied

---

# Tested on: 621-103 (TSC2-rescued)
# PROCEDURE SUMMARY: relative viability vs DMSO; higher = less cytotoxic
# EXPERIMENTAL SETUP: 10 µM; serum: 10% FBS; 72 h
QUANTITY: relative viability (%)

* Cc1ccc(-n2nc(C(C)(C)C)cc2NC(=O)Nc2ccc(OCCN3CCOCC3)c3ccccc23)cc1 [BIRB 796] | 95.5
* CC(C)(C#N)c1cc(Cn2cncn2)cc(C(C)(C)C#N)c1 [Anastrozole (Arimidex)] | 99.4
* O=C1NC(=O)/C(=C\c2ccc3nccnc3c2)S1 | 98.8
* CC[C@H](c1ccc(O)cc1)[C@@H](CC)c1ccc(O)cc1 [Hexestrol (Bibenzyl)] | 95.4
* Nc1ccc(S(N)(=O)=O)cc1 [Sulfanilamide] | 96.1
* N#C/C(=C\c1ccc(O)c(O)c1)C(=O)NCc1ccccc1 [AG-490] | 83.8
* C[C@]12CC[C@@H]3c4ccc(O)cc4C[C@@H](CCCCCCCCC[S+]([O-])CCCC(F)(F)C(F)(F)F)[C@H]3[C@@H]1CC[C@@H]2O (stereo partly drawn) [Fulvestrant] | 104
* Cc1nnc(C(C)C)n1[C@H]1C[C@H]2CC[C@@H](C1)N2CC[C@H](NC(=O)C1CCC(F)(F)CC1)c1ccccc1 [Maraviroc (Selzentry)] | 97.2

---

# Test system: UMB1949 (TSC2-deficient);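 note: renal angiomyolipoma cell lines screened in 384-well plates, viability normalized per plate to DMSO-treated cells, each plate carrying 50 nM rapamycin and 1 µM staurosporine controls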
# PROCEDURE SUMMARY: relative viability vs DMSO (fraction); higher = less cytotoxic
# EXPERIMENTAL SETUP: 5000 nM; serum: 0.1% FBS; 72 h
QUANTITY: relative viability

• CCS(=O)(=O)c1cccc(-c2cc(C(=O)NC3CCN(C)CC3)c(C)c3[nH]c4ncc(C)cc4c23)c1 = 0.0045
• O=C(/C=C/c1cccc(S(=O)(=O)Nc2ccccc2)c1)NO = 0.001
• CC(C)C[C@@H](C(=O)N[C@H](C(=O)OC1CCCC1)c1ccccc1)[C@H](O)C(=O)NO = 0.0151
• CO[C@H]1C[C@@H]2CC[C@@H](C)[C@@](O)(O2)C(=O)C(=O)N2CCCC[C@H]2C(=O)O[C@H]([C@H](C)C[C@@H]2CC[C@@H](OCCO)[C@H](OC)C2)CC(=O)[C@H](C)/C=C(\C)[C@@H](O)[C@@H](OC)C(=O)[C@H](C)C[C@H](C)/C=C/C=C/C=C/1C [Everolimus(RAD001)] = 0.461
• Nc1ncn([C@H]2C[C@H](O)[C@@H](CO)O2)c(=O)n1 = 0.155
• CN1CC[C@H](c2c(O)cc(O)c3c(=O)cc(-c4ccccc4Cl)oc23)[C@H](O)C1 = 0.00348

---

Recorded relative viability, one value per entry.
# Test system: 621-103 (TSC2-rescued)
# PROCEDURE SUMMARY: relative viability vs DMSO; higher = less cytotoxic
# EXPERIMENTAL SETUP: 0.001 µM; serum: 10% FBS; 72 h
Counter-ions that a name gives are not always drawn.
QUANTITY: relative viability (%)

• CCC[C@H](Nc1nc(-c2ccc(NC(=O)NCC)c(OC)c2)ncc1C)c1cccnc1 = 78.3
• CNC(=O)c1cc(Oc2ccc(NC(=O)Nc3ccc(Cl)c(C(F)(F)F)c3)c(F)c2)ccn1 [BAY 73-4506 (Regorafenib)] = 99.1
• C[C@]1(c2nc3c(C(N)=O)cccc3[nH]2)CCCN1 = 103
• COc1ccc([C@H]2CNC(=O)C2)cc1OC1CCCC1 [S-(+)-Rolipram] = 100
• NC(=O)Nc1cc(-c2cccc(F)c2)sc1C(=O)N[C@H]1CCCNC1 = 99
• CN(C)CCCN1c2ccccc2CCc2ccc(Cl)cc21 [Clomipramine HCl] = 102
• COc1cc(Nc2ncc(F)c(Nc3ccc4c(n3)N(COP(=O)(O)O)C(=O)C(C)(C)O4)n2)cc(OC)c1OC = 105
• CCN(CC)CCOc1ccc(C(=C(Cl)c2ccccc2)c2ccccc2)cc1 [Clomifene citrate (Serophene)] = 99.3

---

Each entry below carries its recorded relative viability.
# Test system: 621-102 (TSC2-deficient)
# PROCEDURE SUMMARY: relative viability vs DMSO; higher = less cytotoxic
# EXPERIMENTAL SETUP: 0.1 µM; serum: 10% FBS; 72 h
Structures can show the parent of a compound that is named as a salt.
QUANTITY: relative viability (%)

- CCc1cccc(CC)c1NC(=O)N1Cc2[nH]nc(NC(=O)c3ccc(N4CCN(C)CC4)cc3)c2C1: 91.7
- CC(C)C[C@@H](C=O)NC(=O)[C@H](CC(C)C)NC(=O)[C@H](CC(C)C)NC(=O)OCc1ccccc1: 94.6
- CN(CCOc1ccc(CC2SC(=O)NC2=O)cc1)c1ccccn1 (stereo unspecified): 101
- CCCS(=O)(=O)Nc1ccc(F)c(C(=O)c2c[nH]c3ncc(Cl)cc23)c1F: 99.7
- NC1=N[C@@]2(c3cc(NC(=O)c4ccc(F)cn4)ccc3F)COC[C@H]2CS1: 100
- CN1CCN(C2=Nc3cc(Cl)ccc3Nc3ccccc32)CC1: 104
- CC(C)NCC(O)c1ccc(O)c(O)c1 (stereo unspecified) [Isoprenaline HCl]: 95.5
- Nc1ccn([C@@H]2O[C@H](CO)[C@@H](O)[C@@H]2O)c(=O)n1: 89.4
- COc1cc2nccc(Oc3ccc(NC(=O)Nc4cc(C)on4)c(Cl)c3)c2cc1OC: 111
- C[C@@H]1CCO[C@H]2Cn3cc(C(=O)NCc4ccc(F)cc4F)c(=O)c(O)c3C(=O)N12: 106
- CCc1c2c(nc3ccc(OC(=O)N4CCC(N5CCCCC5)CC4)cc13)-c1cc3c(c(=O)n1C2)COC(=O)[C@]3(O)CC [Irinotecan HCl Trihydrate]: 108
- Cc1ccc(NC(=O)c2ccc(CN3CCN(C)CC3)cc2)cc1Nc1nccc(-c2cccnc2)n1 [Imatinib (STI571)]: 109
- O=C(NC[C@H]1CN(c2ccc(N3CCOCC3=O)cc2)C(=O)O1)c1ccc(Cl)s1: 117
- COc1ccc(-c2nc3cc(C4=NNC(=O)CC4C)ccc3[nH]2)cc1 (stereo unspecified): 108
- Cc1cc(C(C)Nc2ccccc2)c2nc(N3CCOCC3)cc(=O)n2c1 (stereo unspecified): 112
- CC(=O)O[C@H]1C[C@@H]2CC[C@@H]3[C@H](CC[C@@]4(C)[C@H]3C[C@H]([N+]3(C)CCCCC3)[C@@H]4OC(C)=O)[C@@]2(C)C[C@@H]1[N+]1(C)CCCCC1 [Pancuronium bromide]: 91.4

---

# Tested on: 621-103 (TSC2-rescued)
# PROCEDURE SUMMARY: relative viability vs DMSO; higher = less cytotoxic
# EXPERIMENTAL SETUP: 0.1 µM; serum: 10% FBS; 72 h
Structures can show the parent of a compound that is named as a salt.
Each item that follows carries a reported relative viability.
QUANTITY: relative viability (%)

* COC1=C2C[C@@H](C)C[C@H](OC)[C@H](O)[C@@H](C)/C=C(\C)[C@H](OC(N)=O)[C@@H](OC)/C=C\C=C(/C)C(=O)NC(=CC1=O)C2=O | 10.1
* NC(=O)c1ccc(-c2nc(-c3ccccn3)c(-c3ccc4c(c3)OCO4)[nH]2)cc1 | 98.4
* CCCCC(=O)N(Cc1ccc(-c2ccccc2-c2nnn[nH]2)cc1)[C@H](C(=O)O)C(C)C | 114
* COC(=O)Nc1nc2cc(Sc3ccccc3)ccc2[nH]1 | 102
* CNC(=O)CN1CCC(Oc2cc3c(Nc4cccc(Cl)c4F)ncnc3cc2OC)CC1 | 100
* COc1cc(OC)c(NC(=O)Nc2cc(C)on2)cc1Cl | 113
* Cn1c(=O)c(F)c(Nc2ccc(I)cc2F)c2c(=O)n(C[C@@H](O)CO)cnc21 | 84.4
* COC(=O)C1=C(C)NC(C)=C(C(=O)OCCN2CCN(C(c3ccccc3)c3ccccc3)CC2)C1c1cccc([N+](=O)[O-])c1 (configuration not stated) | 108
* N[C@@H](CC(=O)N1CCn2c(nnc2C(F)(F)F)C1)Cc1cc(F)c(F)cc1F [Sitagliptin phosphate] | 100
* Nc1ccn([C@@H]2O[C@H](CO)[C@@H](O)C2(F)F)c(=O)n1 [Gemcitabine Hydrochloride] | 50
* CNC(=C[N+](=O)[O-])NCCSCc1ccc(CN(C)C)o1 [Ranitidine HCl] | 106
* COc1nc(C)cnc1NS(=O)(=O)c1cccnc1-c1ccc(-c2nnco2)cc1 [Zibotentan (ZD4054)] | 100
* NC(=O)c1cccc2[nH]c(-c3ccc(C4CCCN4)cc3F)nc12 (configuration not stated) | 98.4
* Cc1ccccc1-n1c(Cn2cnc3c(N)ncnc32)nc2cccc(C)c2c1=O | 100
* O=C1Nc2ccccc2/C1=C1/Nc2ccccc2C1=O | 81.9
* O=C(c1ccc(/C=C/c2n[nH]c3ccccc23)cc1)N1CCNCC1 | 102
* CCN1CCN(Cc2ccc(-c3cc4c(N[C@H](C)c5ccccc5)ncnc4[nH]3)cc2)CC1 | 102
